Molecular target: Cyclin-dependent kinase 1 (Homo sapiens)
Give measured IC50 for each item. Keep answers brief.
Answers are plain numbers, in nM.

Compound	IC50, nM
O=C1Nc2ccc3ncsc3c2/C1=C/Nc1ccc(S(=O)(=O)NCCc2c[nH]cn2)cc1	38
CC(=O)NS(=O)(=O)c1ccc(N/C=C2\C(=O)Nc3ccc4ncsc4c32)cc1	910
CC(C)=Cc1cccc2c1C(=NNc1ccc(S(N)(=O)=O)cc1)C(=O)N2 [GW396574X]	15
CCc1ccc2c(c1)NC(=O)C2=NNc1ccc(S(N)(=O)=O)cc1	660
NS(=O)(=O)c1ccc(N/C=C2\C(=O)Nc3ccccc32)cc1	3000
CS(=O)(=O)Cc1ccc(N/C=C2\C(=O)Nc3ccc4ncsc4c32)cc1	1200
CNS(=O)(=O)c1ccc(N/C=C2\C(=O)Nc3ccccc32)cc1	2900
CN(C)S(=O)(=O)c1ccc(N/C=C2\C(=O)Nc3ccc4ncsc4c32)cc1	50

Answer for every listed entry: what is its IC50? The entries follow.
1. O=C1Nc2ccc3ncsc3c2/C1=C/Nc1ccc(S(=O)(=O)NCc2ccccc2)cc1
2. NS(=O)(=O)c1ccc(NN=C2C(=O)Nc3ccc(C(=O)NCc4ccncc4)cc32)cc1 [GW300657X]

Marked response:
[52, 74]

###

Give measured pIC50 for each item. Keep answers brief.
Target: Cyclin-dependent kinase 2 (Homo sapiens, UniProt P24941)
Answers are plain numbers, as −log10 of the molar value.

The cases that follow already have their pIC50 on record.
Molecule	Target desc	pIC50
NS(=O)(=O)c1ccc(N/N=C2\C(=O)Nc3ccc4ncsc4c32)cc1	Cyclin-dependent kinase 2 (Homo sapiens, UniProt P24941)	8.15
Cc1cccc(C)c1NS(=O)(=O)c1ccc(N/C=C2\C(=O)Nc3ccc4ncsc4c32)cc1	Cyclin-dependent kinase 2 (Homo sapiens, UniProt P24941)	6.55
NS(=O)(=O)c1ccc(N/C=C2\C(=O)Nc3ccc(-c4cnco4)cc32)cc1	Cyclin-dependent kinase 2 (Homo sapiens, UniProt P24941)	8.60
O=C1Nc2ccc3ncsc3c2/C1=C/Nc1ccc(S(=O)(=O)Nc2ccccc2)cc1	Cyclin-dependent kinase 2 (Homo sapiens, UniProt P24941)	8.37

Answer for every listed entry: what is its pIC50? The entries follow.
1. COCCOCCOCCOCCN(C)S(=O)(=O)c1ccc(N/C=C2\C(=O)Nc3ccc4ncsc4c32)cc1
2. O=C1Nc2ccc3ncsc3c2/C1=C/Nc1ccc(S(=O)(=O)NCCc2c[nH]cn2)cc1
3. CC(C)c1cccc2c1C(=NNc1ccc(S(N)(=O)=O)cc1)C(=O)N2
4. NS(=O)(=O)c1ccc(NN=C2C(=O)Nc3ccc(C(=O)NCCCn4ccnc4)cc32)cc1 [GW290597X]
5. O=C1Nc2ccc3ncsc3c2/C1=C/Nc1ccc(CS(=O)(=O)NCCO)cc1

Marked response:
9.00
8.44
8.60
7.60
7.89

###

Target: Cyclin-dependent kinase 1 (Homo sapiens, UniProt P06493)
Sequence (P06493 whole entry): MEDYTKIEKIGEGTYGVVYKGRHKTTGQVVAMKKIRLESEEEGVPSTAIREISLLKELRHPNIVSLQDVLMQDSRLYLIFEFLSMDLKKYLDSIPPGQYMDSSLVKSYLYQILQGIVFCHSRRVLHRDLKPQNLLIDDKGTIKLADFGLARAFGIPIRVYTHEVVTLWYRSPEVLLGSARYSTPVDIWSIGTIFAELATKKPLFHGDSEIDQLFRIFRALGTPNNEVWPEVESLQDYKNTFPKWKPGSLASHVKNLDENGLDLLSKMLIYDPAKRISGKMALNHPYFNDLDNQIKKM
Measured endpoint: IC50 (nM)
Answers are plain numbers, in nM.

The cases that follow already have their IC50 on record.
Compound	Target desc	Units	Value reported
NS(=O)(=O)c1ccc(NN=C2C(=O)Nc3cc(Br)ccc32)cc1	Cyclin-dependent kinase 1 (Homo sapiens, UniProt P06493)	nM	520
COc1ccc2c(c1)C(=NNc1ccc(S(N)(=O)=O)cc1)C(=O)N2	Cyclin-dependent kinase 1 (Homo sapiens, UniProt P06493)	nM	210
Cc1ccc2c(c1)C(=NNc1ccc(S(N)(=O)=O)cc1)C(=O)N2 [GW275944X]	Cyclin-dependent kinase 1 (Homo sapiens, UniProt P06493)	nM	330
O=C1Nc2ccc(-c3cnco3)cc2/C1=C/Nc1ccc2c(c1)CS(=O)(=O)C2	Cyclin-dependent kinase 1 (Homo sapiens, UniProt P06493)	nM	19

Exam item: Identify IC50 associated with the compound CC(C)Cc1cccc2c1C(=NNc1ccc(S(N)(=O)=O)cc1)C(=O)N2
Marked response: 19

###

Give measured pIC50 for each item. Keep answers brief.
Biological target: Cyclin-dependent kinase 1 (Homo sapiens, UniProt P06493)
Give bare numbers, as −log10 of the molar value.

Compound	Target desc	pIC50
CN(C)C(=O)c1ccc2c(c1)C(=NNc1ccc(S(N)(=O)=O)cc1)C(=O)N2	Cyclin-dependent kinase 1 (Homo sapiens, UniProt P06493)	6.89
NS(=O)(=O)c1ccc(N/C=C2\C(=O)Nc3ccc4ncccc4c32)cc1	Cyclin-dependent kinase 1 (Homo sapiens, UniProt P06493)	7.82
O=C1Nc2ccc3ncsc3c2/C1=C/Nc1ccc(S(=O)(=O)Nc2ccccn2)cc1	Cyclin-dependent kinase 1 (Homo sapiens, UniProt P06493)	7.00
CN(C)CCNS(=O)(=O)c1ccc(N/C=C2\C(=O)Nc3ccccc32)cc1	Cyclin-dependent kinase 1 (Homo sapiens, UniProt P06493)	5.26
NS(=O)(=O)Cc1ccc(N/C=C2\C(=O)Nc3ccc4ncsc4c32)cc1	Cyclin-dependent kinase 1 (Homo sapiens, UniProt P06493)	7.00

Answer for every listed entry: what is its pIC50? The entries follow.
1. NS(=O)(=O)c1ccc(/N=N/c2c(O)[nH]c3cccc(I)c23)cc1
2. C/C(Nc1ccc(S(N)(=O)=O)cc1)=C1/C(=O)Nc2ccc(-c3cnco3)cc21
3. Cc1cccc(C)c1NS(=O)(=O)c1ccc(N/C=C2\C(=O)Nc3ccc4ncsc4c32)cc1
4. NS(=O)(=O)c1ccc(N/N=C2\C(=O)Nc3ccc(Cl)cc32)cc1 [GW280670X]

Marked response:
6.96
8.15
4.85
6.52

###

Consider the following pIC50 values measured on Cyclin-dependent kinase 2 (Homo sapiens).
Numbers only, as −log10 of the molar value.

Answer for every listed entry: what is its pIC50? The entries follow.
1. CNS(=O)(=O)Cc1ccc(N/C=C2\C(=O)Nc3ccc4ncsc4c32)cc1
2. COC(=O)c1ccc2c(c1)/C(=C/Nc1ccc(S(N)(=O)=O)cc1)C(=O)N2
3. CN(c1ccccn1)S(=O)(=O)c1ccc(N/C=C2\C(=O)Nc3ccc4ncsc4c32)cc1
4. NS(=O)(=O)c1ccc(NN=C2C(=O)Nc3ccc(I)cc32)cc1
5. Cc1ccc2c(c1)C(=NNc1ccc(S(N)(=O)=O)cc1)C(=O)N2 [GW275944X]

Marked response:
1. 7.59
2. 8.68
3. 8.25
4. 7.96
5. 7.34

Answer for every listed entry: what is its pIC50? The entries follow.
1. CC(C)COC(=O)c1ccc2c(c1)/C(=C/Nc1ccc(S(N)(=O)=O)cc1)C(=O)N2 [GW416981X]
2. COc1ccc2c(c1)C(=NNc1ccc(S(N)(=O)=O)cc1)C(=O)N2
3. CN(C)S(=O)(=O)c1ccc(N/C=C2\C(=O)Nc3ccc4ncsc4c32)cc1
4. CN(C)C(=O)c1ccc2c(c1)C(=NNc1ccc(S(N)(=O)=O)cc1)C(=O)N2

Marked response:
1. 8.52
2. 7.92
3. 8.34
4. 7.77

###

Consider the following log10 of IC50 values measured on UniProtKB P24941.
Give log10 of IC50, with IC50 taken in nM.

Compound	Value reported
NS(=O)(=O)c1ccc(N/N=C2\C(=O)Nc3ccccc32)cc1	2.08
CCc1cccc2c1C(=NNc1ccc(S(N)(=O)=O)cc1)C(=O)N2	0.90
CC(C)Cc1cccc2c1C(=NNc1ccc(S(N)(=O)=O)cc1)C(=O)N2	0.08
CC(C)=Cc1cccc2c1C(=NNc1ccc(S(N)(=O)=O)cc1)C(=O)N2 [GW396574X]	0.18
C/C(Nc1ccc(S(N)(=O)=O)cc1)=C1/C(=O)Nc2ccccc21 [GW335962X]	2.56
NS(=O)(=O)c1ccc(NN=C2C(=O)Nc3ccc([N+](=O)[O-])cc32)cc1	1.18
O=C1Nc2ccc3ncsc3c2/C1=C/Nc1ccc(S(=O)(=O)NCCO)cc1	0.67
NS(=O)(=O)c1ccc(N/N=C2\C(=O)Nc3ccc(Cl)cc32)cc1 [GW280670X]	1.63

Answer for every listed entry: what is its log10 of IC50? The entries follow.
1. NS(=O)(=O)c1ccc(/N=N/c2c(O)[nH]c3cccc(I)c23)cc1
2. CCOC(=O)c1cccc2c1/C(=C/Nc1ccc(S(N)(=O)=O)cc1)C(=O)N2
3. NS(=O)(=O)Cc1ccc(N/C=C2\C(=O)Nc3ccc4ncsc4c32)cc1
4. CC(C)(CO)CNC(=O)c1ccc2c(c1)C(=NNc1ccc(S(N)(=O)=O)cc1)C(=O)N2 [GW301784X]
5. NS(=O)(=O)c1ccc(NN=C2C(=O)Nc3ccc(C(=O)NCc4ccncc4)cc32)cc1 [GW300657X]

Marked response:
1: 0.66; 2: 0.95; 3: 0.88; 4: 0.83; 5: 0.95

Answer for every listed entry: what is its log10 of IC50? The entries follow.
1. CN(C)c1ccc2c(c1)/C(=C/Nc1ccc(S(N)(=O)=O)cc1)C(=O)N2 [GW416469X]
2. NS(=O)(=O)c1ccc(NN=C2C(=O)Nc3ccc(F)cc32)cc1
3. CNS(=O)(=O)c1ccc(N/C=C2\C(=O)Nc3ccc4ncsc4c32)cc1
4. Cc1c([N+](=O)[O-])ccc2c1C(=NNc1ccc(S(N)(=O)=O)cc1)C(=O)N2
5. CS(=O)(=O)c1ccc(N/C=C2\C(=O)Nc3ccc4ncsc4c32)cc1
6. CS(=O)(=O)Cc1ccc(N/C=C2\C(=O)Nc3ccc4ncsc4c32)cc1

Marked response:
1: 2.49; 2: 1.53; 3: 0.75; 4: 0.66; 5: 0.76; 6: 1.70

These data points were gathered from ChEMBL document CHEMBL1134300.
